Tested on: 313798-341-R-J2-PDC spheroids, viability
Experiment: Anticancer human tumor 313798-341-R-J2-PDC patient-derived cervical squamous cell carcinoma cell line growth inhibition [PI3K]
Conditions: second compound 0.1 µM; first compound 0.1 µM; active compounds read low; spheroids with HUVEC and MSC
Text: Combinatorial screen of targeted agents with the PI3K inhibitors inavolisib, alpelisib, duvelisib, and copanlisib in multi-cell type tumor spheroids A high-throughput screen of multi-cell type tumor spheroids was designed to identify active combinations of targeted small molecules and PI3K pathway inhibitors. […] Compounds. […] If the clinical Cmax for an agent had not been determined, the highest concentration tested was 10 microM. […]
Criterion: viability, T/C strictly less than 90%. Met: Yes. Not met: No.

Reference set, count: 4
molecule	class.assignment
CC1(C)CCC(Nc2ncc(C(F)(F)F)c(-c3c[nH]c4c(P(C)(C)=O)c(C#N)ccc34)n2)CN1 (configuration not stated) + Cc1nc(NC(=O)N2CCCC2C(N)=O)sc1-c1ccnc(C(C)(C)C(F)(F)F)c1	Yes
CNC(=O)c1ccc(N2C(=S)N(c3ccc(C#N)c(C(F)(F)F)c3)C(=O)C2(C)C)cc1F + CC(Nc1ncnc2nc[nH]c12)c1cc2cccc(Cl)c2c(=O)n1-c1ccccc1	No
CCCS(=O)(=O)Nc1ccc(F)c(C(=O)c2c[nH]c3ncc(-c4ccc(Cl)cc4)cc23)c1F + CC(Nc1ncnc2nc[nH]c12)c1cc2cccc(Cl)c2c(=O)n1-c1ccccc1	No
CC(C)n1nc(-c2ccc3oc(N)nc3c2)c2c(N)ncnc21 + Cc1nc(NC(=O)N2CCCC2C(N)=O)sc1-c1ccnc(C(C)(C)C(F)(F)F)c1	Yes

Now consider a different molecule.
Data request: Is viability, T/C of C=CC(=O)N1CCN(c2nc(=O)n(-c3c(C)ccnc3C(C)C)c3nc(-c4c(O)cccc4F)c(F)cc23)C(C)C1 (configuration not stated) + CC(Nc1ccc2c(c1)OCCn1cc(N3C(=O)OCC3C(F)F)nc1-2)C(N)=O strictly below 90%?
Data returned: No

###

system: 313798-341-R-J2-PDC spheroids, viability; assay: Anticancer human tumor 313798-341-R-J2-PDC cell line growth inhibition [PI3K]; settings: second compound 10 µM; first compound 0.1 µM; active compounds read low; spheroids with HUVEC and MSC;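 further: spheroids exposed to compounds for seven days; 100% = DMSO vehicle control viability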
measure: viability, T/C (%)
Value expressed in %; do not type the unit.

Data request: Which viability, T/C value is on record for CC1(C)CCC(Nc2ncc(C(F)(F)F)c(-c3c[nH]c4c(P(C)(C)=O)c(C#N)ccc34)n2)CN1 (centres undefined) + Cc1nc(NC(=O)N2CCCC2C(N)=O)sc1-c1ccnc(C(C)(C)C(F)(F)F)c1 ?
Data returned: 18.7

Data request: Which viability, T/C value is on record for CCN1CCN(Cc2ccc(Nc3ncc(F)c(-c4cc(F)c5nc(C)n(C(C)C)c5c4)n3)nc2)CC1 + Cc1nc(NC(=O)N2CCCC2C(N)=O)sc1-c1ccnc(C(C)(C)C(F)(F)F)c1 ?
Data returned: 35.8

Data request: Which viability, T/C value is on record for C[C@@H](NC(=O)c1ncnc(N)c1Cl)c1ncc(C(=O)Nc2cc(C(F)(F)F)c(Cl)cn2)s1 + Cc1nc(NC(=O)N2CCCC2C(N)=O)sc1-c1ccnc(C(C)(C)C(F)(F)F)c1 ?
Data returned: 35.1

Data request: Which viability, T/C value is on record for CC(Cn1ccc(-c2ccc(C#N)c(Cl)c2)n1)NC(=O)c1cc(C(C)O)[nH]n1 (centres undefined) + Cc1nc(NC(=O)N2CCCC2C(N)=O)sc1-c1ccnc(C(C)(C)C(F)(F)F)c1 ?
Data returned: 33.2

###

# viability, T/C per entry
test system: 313798-341-R-J2-PDC spheroids, viability; test: Anticancer human tumor 313798-341-R-J2-PDC cell line growth inhibition [PI3K]; settings: second compound 0.00316 µM; first compound 0.316 µM; active compounds read low; spheroids with HUVEC and MSC;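 further: spheroids exposed to compounds for seven days; 100% = DMSO vehicle control viability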
Value expressed in %; do not type the unit.

Take a look at these entries with their results.
compound	subject.of.test	units.symbol	viability, T/C
CC1(C)CCC(CN2CCN(c3ccc(C(=O)NS(=O)(=O)c4ccc(NCC5CCOCC5)c([N+](=O)[O-])c4)c(Oc4cnc5[nH]ccc5c4)c3)CC2)=C(c2ccc(Cl)cc2)C1 + CC(Nc1ccc2c(c1)OCCn1cc(N3C(=O)OCC3C(F)F)nc1-2)C(N)=O	313798-341-R-J2-PDC spheroids, viability	%	95.5
C#Cc1c(F)ccc2cc(O)cc(-c3ncc4c(N5CC6CCC(C5)N6)nc(OCC56CCCN5CC(F)C6)nc4c3F)c12 (stereo not drawn) + CC(Nc1ccc2c(c1)OCCn1cc(N3C(=O)OCC3C(F)F)nc1-2)C(N)=O	313798-341-R-J2-PDC spheroids, viability	%	97.4
CC(C)NCC(C(=O)N1CCN(c2ncnc3c2C(C)CC3O)CC1)c1ccc(Cl)cc1 (stereo not drawn) + CC(Nc1ccc2c(c1)OCCn1cc(N3C(=O)OCC3C(F)F)nc1-2)C(N)=O	313798-341-R-J2-PDC spheroids, viability	%	81
C#Cc1c(F)ccc2cc(O)cc(-c3ncc4c(N5CC6CCC(C5)N6)nc(OCC56CCCN5CC(F)C6)nc4c3F)c12 (stereo not drawn) + COc1c(OCCCN2CCOCC2)ccc2c3n(c(=NC(=O)c4cnc(N)nc4)nc12)CCN3	313798-341-R-J2-PDC spheroids, viability	%	107
CC1(C)CCC(CN2CCN(c3ccc(C(=O)NS(=O)(=O)c4ccc(NCC5CCOCC5)c([N+](=O)[O-])c4)c(Oc4cnc5[nH]ccc5c4)c3)CC2)=C(c2ccc(Cl)cc2)C1 + COc1c(OCCCN2CCOCC2)ccc2c3n(c(=NC(=O)c4cnc(N)nc4)nc12)CCN3	313798-341-R-J2-PDC spheroids, viability	%	113
CCN1CCN(Cc2ccc(Nc3ncc(F)c(-c4cc(F)c5nc(C)n(C(C)C)c5c4)n3)nc2)CC1 + COc1c(OCCCN2CCOCC2)ccc2c3n(c(=NC(=O)c4cnc(N)nc4)nc12)CCN3	313798-341-R-J2-PDC spheroids, viability	%	119

Read the next record carefully.
Data request: Request body: readout viability, T/C, system 313798-341-R-J2-PDC spheroids, viability, query CCCS(=O)(=O)Nc1ccc(F)c(C(=O)c2c[nH]c3ncc(-c4ccc(Cl)cc4)cc23)c1F + COc1c(OCCCN2CCOCC2)ccc2c3n(c(=NC(=O)c4cnc(N)nc4)nc12)CCN3 . Return the value.
Data returned: 99.6

###

# viability, T/C per entry
Test system: 313798-341-R-J2-PDC spheroids, viability
Assay: Anticancer human tumor 313798-341-R-J2-PDC cell line growth inhibition [PI3K];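 further: spheroids exposed to compounds for seven days; 100% = DMSO vehicle control viability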
Conditions: second compound 0.1 µM; first compound 0.316 µM; active compounds read low; spheroids with HUVEC and MSC
Text: Combinatorial screen of targeted agents with the PI3K inhibitors inavolisib, alpelisib, duvelisib, and copanlisib in multi-cell type tumor spheroids A high-throughput screen of multi-cell type tumor spheroids was designed to identify active combinations of targeted small molecules and PI3K pathway inhibitors. […] Compounds. […] If the clinical Cmax for an agent had not been determined, the highest concentration tested was 10 microM. […]
Value expressed in %; do not type the unit.

compound	viability, T/C (%)
CC(C)NCC(C(=O)N1CCN(c2ncnc3c2C(C)CC3O)CC1)c1ccc(Cl)cc1 (stereo unspecified) + CC(Nc1ccc2c(c1)OCCn1cc(N3C(=O)OCC3C(F)F)nc1-2)C(N)=O	80.9
C#Cc1c(F)ccc2cc(O)cc(-c3ncc4c(N5CC6CCC(C5)N6)nc(OCC56CCCN5CC(F)C6)nc4c3F)c12 (stereo unspecified) + CC(Nc1ccc2c(c1)OCCn1cc(N3C(=O)OCC3C(F)F)nc1-2)C(N)=O	108
Cn1ncc(Cl)c1-c1cc(C(=O)NC(CN)Cc2cccc(F)c2)sc1Cl (stereo unspecified) + Cc1nc(NC(=O)N2CCCC2C(N)=O)sc1-c1ccnc(C(C)(C)C(F)(F)F)c1	72.1
C[C@@H](NC(=O)c1ncnc(N)c1Cl)c1ncc(C(=O)Nc2cc(C(F)(F)F)c(Cl)cn2)s1 + COc1c(OCCCN2CCOCC2)ccc2c3n(c(=NC(=O)c4cnc(N)nc4)nc12)CCN3	46.5
CC1(C)CCC(CN2CCN(c3ccc(C(=O)NS(=O)(=O)c4ccc(NCC5CCOCC5)c([N+](=O)[O-])c4)c(Oc4cnc5[nH]ccc5c4)c3)CC2)=C(c2ccc(Cl)cc2)C1 + Cc1nc(NC(=O)N2CCCC2C(N)=O)sc1-c1ccnc(C(C)(C)C(F)(F)F)c1	110

Read the next record carefully.
Data request: Which viability, T/C value is on record for CC1(C)CCC(CN2CCN(c3ccc(C(=O)NS(=O)(=O)c4ccc(NCC5CCOCC5)c([N+](=O)[O-])c4)c(Oc4cnc5[nH]ccc5c4)c3)CC2)=C(c2ccc(Cl)cc2)C1 + CC(Nc1ccc2c(c1)OCCn1cc(N3C(=O)OCC3C(F)F)nc1-2)C(N)=O ?
Data returned: 90.4

Every entry's value here was drawn from PubChem BioAssay AID1963982.
